Data origin: patent US11306089B2

Target: MAO-A (Homo sapiens)
Construct: human brain homogenate (without AD pathology, HC)
Sequence (P21397 whole entry): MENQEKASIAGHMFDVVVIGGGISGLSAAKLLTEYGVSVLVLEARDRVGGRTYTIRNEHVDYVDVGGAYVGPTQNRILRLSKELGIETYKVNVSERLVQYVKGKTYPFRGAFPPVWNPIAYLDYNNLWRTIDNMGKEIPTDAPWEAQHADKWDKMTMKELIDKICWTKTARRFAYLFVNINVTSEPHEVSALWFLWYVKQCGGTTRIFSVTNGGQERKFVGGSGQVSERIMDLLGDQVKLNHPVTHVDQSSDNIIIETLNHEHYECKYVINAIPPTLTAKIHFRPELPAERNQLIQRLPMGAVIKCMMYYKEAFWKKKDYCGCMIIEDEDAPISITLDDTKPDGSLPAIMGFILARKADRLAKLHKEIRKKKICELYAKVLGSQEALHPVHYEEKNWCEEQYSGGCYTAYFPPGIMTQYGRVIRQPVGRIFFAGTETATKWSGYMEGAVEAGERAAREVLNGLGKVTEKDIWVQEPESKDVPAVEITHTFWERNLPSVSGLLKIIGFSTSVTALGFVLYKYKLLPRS
Test: Binding affinity to MAO-A in human HC brain homogenate (3H-Harmine competition)
Details: human control brain homogenate; 3H-Harmine competition
Assign pIC50 to each entry below.
Answers are plain numbers, as −log10 of the molar value.

Recorded pIC50, per entry:
compound	pIC50
[18F]c1ccc(-c2ccc3c(c2)[nH]c2ccncc23)cn1 [^18F-1, reference compound]	8.23
Fc1ccc(-c2ccc3c(c2)[nH]c2ccncc23)cn1 [F-1, reference compound]	8.23
Fc1cc(-c2ccc3c(c2)[nH]c2ccncc23)ccn1 [F-2]	7.43

Please find the next compound below.
Exercise: Report value: pIC50, system: MAO-A (Homo sapiens), compound: [18F]c1cc(-c2ccc3c(c2)[nH]c2ccncc23)ccn1 [^18F-2]
Solution: 7.43
